target: α-chymotrypsin (Bos taurus, UniProt P00766); assay: Chymotrypsin inhibitory activity of peptides (AAPFpNA hydrolysis; IC50, Ki, residual activity); assay type: biochemical; conditions: peptide 100 μM
Bridge positions count the residues as written; N and C are the ends. Peptide text beside a SMILES is read from it.
We begin with a simple list: items and their reported Residual activity of chymotrypsin.
Please answer using a numeric value trailed by its unit.

CC[C@H](C)[C@@H]1NC(=O)[C@H](CO)NC(=O)[C@H](Cc2ccccc2)NC(=O)[C@H]([C@@H](C)O)NC(=O)[C@@H](NC(=O)[C@@H](N)CC(C)C)CSSC[C@@H](C(=O)N[C@@H](Cc2ccc(O)cc2)C(=O)NCC(=O)O)NC(=O)[C@H](CCC(N)=O)NC(=O)[C@@H]2CCCN2C(=O)[C@@H]2CCCN2C1=O [CH1] (H-LCTFSIPPQCYG-OH; disulfide 2-10; N-terminus and C-terminus assumed): 1.2 ± 0.1%

From here, focus on the item given below.
May I ask what Residual activity of chymotrypsin has been recorded for CC[C@H](C)[C@@H]1NC(=O)[C@H](CO)NC(=O)[C@H](Cc2ccccc2)NC(=O)[C@H]([C@@H](C)O)NC(=O)CNC(=O)[C@H](Cc2ccccc2)NC(=O)CNC(=O)[C@@H](N)CSSC[C@@H](C(=O)N[C@@H](Cc2ccc(O)cc2)C(=O)NCC(=O)O)NC(=O)[C@H](CCC(N)=O)NC(=O)[C@@H]2CCCN2C(=O)[C@@H]2CCCN2C1=O [CH7] (H-CGFGTFSIPPQCYG-OH; disulfide 1-12; N-terminus and C-terminus assumed) ?
14.1 ± 0.9%

Source: patent US20230416329A1
